- Measurement Notes: NCI Yeast Anticancer Drug Screen. Data for the wt1 strain (AID 149);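 also: 0% = growth of vehicle-treated wt1 cultures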
- Condition Notes: S. cerevisiae wt1 strain (SPY 50644) growth inhibition; at 3.7 µM; active compounds read high
Compounds without any hit were thinned out: in the full panel of roughly 79,000, 15% have a hit.
Please provide measured growth inhibition for the entries that follow.
Answers are plain numbers, in %.

> print(dat)
                                    compound     property.label  numeric.result
 1          COc1cc(C(=O)/C=C/c2ccccc2O)ccc1O  growth inhibition              73
 2             NNC(=O)CCc1ccc2ccc3ccccc3c2c1  growth inhibition               3
 3  CCN(CC)CCNc1ccc([N+](=O)[O-])c2nc3ccc(OC)cc3c(N)c12  growth inhibition             -14
 4  CCC[CH2][Ge]([CH2]CCC)([CH2]CCC)[O]C(=O)C(OC)c1ccccc1 (centres undefined)  growth inhibition              -6
 5                     CCCCCCCCCCCC(=O)N(C)C  growth inhibition             -13
 6  CCCCCCCCCCCCCC[N+](C)(CC(=O)[O-])Cc1ccccc1 (centres undefined)  growth inhibition               1
 7  COc1cc(C2c3cc4c(cc3OC(Nc3ccccc3)C2C)OCO4)cc(OC)c1O (centres undefined)  growth inhibition              -1
 8  CC(=O)Nc1ccc2c(c1)C(=Nc1ccc(C(=O)O)cc1)c1ccccc1-2  growth inhibition               6
 9  CCCS(=O)(=O)Nc1ccc(Nc2c3ccccc3nc3ccccc23)c(OC)c1  growth inhibition             -55
10                CCCCN(CCCC)CCSc1ccc(Cl)cc1  growth inhibition               7

Dear reader, for each entry below, please note its growth inhibition.
1. Cc1nn(-c2cc(Cl)ccc2[N+](=O)[O-])c(C)c1Cl
2. O=C(O)CNc1ccc(Cl)c(Cl)c1
3. O=C1c2ccccc2C(=O)c2cc(CBr)ccc21

1: -1; 2: -6; 3: 0

Which growth inhibition value is on record for "S=C(S)NN1CCOCC1" ?
29
